Items are presented alongside their recorded IC50 (µg/mL), pseudovirus neutralization.
Biological target: HIV-1 Env of isolate MGRM-C-026 (subtype C) (HIV-1)
Experiment: cell-based or functional assay
ENDPOINT: IC50 (µg/mL), pseudovirus neutralization

[[record]]
binder = "PGT-127 (antibody, V domains shown) VH: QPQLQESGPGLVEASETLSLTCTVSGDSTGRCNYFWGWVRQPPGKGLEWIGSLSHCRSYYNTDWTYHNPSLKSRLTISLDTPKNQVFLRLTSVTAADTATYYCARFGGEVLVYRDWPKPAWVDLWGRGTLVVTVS VL: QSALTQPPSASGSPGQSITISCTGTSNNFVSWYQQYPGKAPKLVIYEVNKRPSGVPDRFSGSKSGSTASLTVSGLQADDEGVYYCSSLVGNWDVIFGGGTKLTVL"
recorded_number = 0.014

[[record]]
binder = "PGT-125 (antibody, V domains shown) VH: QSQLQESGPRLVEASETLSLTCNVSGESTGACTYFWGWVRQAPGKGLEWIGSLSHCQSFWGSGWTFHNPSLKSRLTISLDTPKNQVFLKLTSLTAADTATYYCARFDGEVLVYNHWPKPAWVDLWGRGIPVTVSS VL: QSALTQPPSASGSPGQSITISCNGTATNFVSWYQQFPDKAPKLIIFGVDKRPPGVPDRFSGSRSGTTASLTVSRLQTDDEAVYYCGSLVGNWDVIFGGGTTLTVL"
recorded_number = 0.005

[[record]]
binder = "PGT-126 (antibody, V domains shown) VH: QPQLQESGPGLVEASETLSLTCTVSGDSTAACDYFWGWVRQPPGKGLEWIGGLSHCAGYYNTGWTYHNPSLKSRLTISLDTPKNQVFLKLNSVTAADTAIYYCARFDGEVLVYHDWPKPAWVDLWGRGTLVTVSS VL: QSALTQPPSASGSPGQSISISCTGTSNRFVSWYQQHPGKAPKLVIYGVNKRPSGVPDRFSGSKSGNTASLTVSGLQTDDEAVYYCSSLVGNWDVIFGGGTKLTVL"
recorded_number = 0.007

[[record]]
binder = "PGT-123 (antibody, V domains shown) VH: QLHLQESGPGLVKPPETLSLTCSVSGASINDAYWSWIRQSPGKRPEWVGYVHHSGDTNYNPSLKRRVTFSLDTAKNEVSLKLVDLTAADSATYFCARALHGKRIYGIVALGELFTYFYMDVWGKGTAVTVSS VL: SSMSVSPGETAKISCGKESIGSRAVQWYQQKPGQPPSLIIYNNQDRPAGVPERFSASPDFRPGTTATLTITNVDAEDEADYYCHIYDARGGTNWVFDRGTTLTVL"
recorded_number = 0.001

